Kindly state TGI for each of the entries shown.
# Test system: SF-295 CNS
# assay_comment: NCI tumour cell line growth inhibition, 48 h

Prompt line: Bench note: what TGI did COc1c(O)cc2c(c1O)C(=O)/C(=C/c1ccc(O)cc1)CO2 show?
Response line: > 100 µM

Prompt line: Also need COC(=O)C(Cc1nc2ccccc2[nH]c1=O)C(=O)C(=O)Nc1ccc([N+](=O)[O-])cc1[N+](=O)[O-] (stereo not given) , thanks.
Response line: 49.9 µM

Prompt line: Also need NNC(=O)c1nnn(CCc2ccccc2)c1C(=O)NN , thanks.
Response line: > 100 µM

Prompt line: Also need OCC(O)c1nc2ccc3[nH]ncc3c2c2c1CCCC2 (stereo not given) , thanks.
Response line: > 50 µM

Further cases:
Prompt line: Bench note: what TGI did CCCN(CCCC(NC(C)=O)C(=O)NCc1ccccc1)C(=O)NCCCl (stereo not given) show?
Response line: > 100 µM
